Molecular target: COUP transcription factor 2 (Homo sapiens)
Assay: COUP-TFII reporter suppression in human cells – cell-based, luciferase reporter, HEK293T, luminescence, primary screen (AID 686940);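 note: cells cotransfected with COUP-TFII expression vector driving the NGFI-A reporter; 0% = median of COUP-TF2 test wells and 100% = reporter-only cells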
Details: HEK293T NGFI-A luciferase reporter, at 8.6 µM
About 2,600 (0.7%) of roughly 370,000 compounds were called active.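 Rule for the calls: active = inhibition above a per-plate cutoff, mean inhibition of test wells between control levels plus 3 SD (cut at about 38% in these data); inactive = the rest.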 For the sample, actives were picked, then their nearest neighbours and some compounds at random.
Labels: active, inactive

smiles=Cc1ccc(S(=O)(=O)N2CCCCC2)cc1C(=O)N(C)CC(=O)Nc1cccc(F)c1 label_value=inactive
smiles=Cc1ccc(NC(=O)c2cc(C)nn2-c2ccccc2)c(C)c1 label_value=inactive
smiles=Cc1ccc(NC(=O)CN(C)Cc2ccc(F)cc2)c([N+](=O)[O-])c1 label_value=inactive
smiles=Cc1ccc(-n2c(SCC(=O)Nc3cccc4ccccc34)nnc2-c2ccccn2)cc1 label_value=inactive
smiles=COc1cc(C(=O)NCc2nnc(SCC(=O)Nc3nc4ccc(C)cc4s3)o2)cc(OC)c1OC label_value=inactive
smiles=CCn1c(CNC(=O)c2cc(OC)c(OC)c(OC)c2)cc2cc(C)ccc21 label_value=active
smiles=O=S1(=O)c2c(cccc2N2CC[C@H](O)C2)O[C@@H]2CCN1C2 label_value=inactive
smiles=CN(c1ccc(C(=O)N2CCc3ccccc3C2)cc1)S(C)(=O)=O label_value=inactive
smiles=CC(=O)Nc1nc2ncccn2c1-c1ccc(C(F)(F)F)cc1 label_value=inactive
smiles=CCCNC(=O)Nc1ccc2c(c1)C(=O)N(C)[C@H]1CC[C@H](CC(=O)NCC3CCCCC3)O[C@@H]1CO2 label_value=inactive

====

Molecular target: COUP transcription factor 2 (Homo sapiens) (UniProt P24468)
Sequence (P24468 whole entry, looked up): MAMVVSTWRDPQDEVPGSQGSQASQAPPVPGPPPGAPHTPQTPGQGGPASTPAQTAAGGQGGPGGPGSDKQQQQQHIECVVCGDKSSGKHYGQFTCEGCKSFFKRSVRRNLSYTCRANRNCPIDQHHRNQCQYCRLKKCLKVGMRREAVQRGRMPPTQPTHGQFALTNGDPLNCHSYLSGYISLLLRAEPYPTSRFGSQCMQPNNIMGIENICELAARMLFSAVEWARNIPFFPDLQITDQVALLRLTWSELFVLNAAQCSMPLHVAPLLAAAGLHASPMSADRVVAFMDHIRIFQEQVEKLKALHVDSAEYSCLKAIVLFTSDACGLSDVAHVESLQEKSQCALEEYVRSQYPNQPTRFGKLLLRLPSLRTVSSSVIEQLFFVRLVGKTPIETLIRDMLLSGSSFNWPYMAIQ
Assay: COUP-TFII reporter suppression in human cells – cell-based, luciferase reporter, HEK293T, luminescence, primary screen (AID 686940);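 note: cells cotransfected with COUP-TFII expression vector driving the NGFI-A reporter; 0% = median of COUP-TF2 test wells and 100% = reporter-only cells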
Conditions: HEK293T NGFI-A luciferase reporter, at 8.6 µM, stronger effect = higher value
The campaign covered roughly 370,000 compounds. About 2,600 (0.7%) were called active. This excerpt belongs to a sample that is enriched for actives.
Examples of compounds with documented inhibition follow.
metric-name: inhibition (%)

compound=CCC(=O)Nc1ccc2c(c1)C(=O)N(C)[C@H]1CC[C@H](CC(=O)NCCOC)O[C@@H]1CO2 measure_unit=% reported_value=13.3
compound=CCOC(=O)c1cccc(NC(=O)CN(C)S(=O)(=O)c2ccc(-c3cocn3)s2)c1 measure_unit=% reported_value=-17.4
compound=O=C(NCCSCc1ccccc1)c1ccc(Cl)c(S(=O)(=O)N2CCOCC2)c1 measure_unit=% reported_value=11
compound=COc1ccc(Cn2cc(COC(=O)N(C)Cc3ccccc3)nn2)cc1 measure_unit=% reported_value=3.65
compound=CN(C)S(=O)(=O)c1ccc(C(=O)NCC(C)(C)N2CCOCC2)cc1 measure_unit=% reported_value=15.8
compound=C=CCn1c(C)cc(C2=NNC(=NCC)SC2)c1C measure_unit=% reported_value=94.5
compound=COc1ccc(N2CCN(CCNS(=O)(=O)c3ccc(C(C)(C)C)cc3)CC2)cc1 measure_unit=% reported_value=2.21
compound=N#C[C@]1(S(=O)(=O)c2ccccc2)C[C@@H]2ON=C(c3cccc(Br)c3)[C@@H]2C1 measure_unit=% reported_value=52.9
compound=CC(C)(CNC(=O)c1ccc(Cl)c(S(=O)(=O)N2CCc3ccccc3C2)c1)N1CCOCC1 measure_unit=% reported_value=65
compound="CCCC[C@H]1C2CC(OC(=O)NCc3ccccc3)C(C2)[C@H]2CCCCN21 (stereo not given in full)" measure_unit=% reported_value=2.27

====

Target: COUP transcription factor 2 (Homo sapiens) (UniProt P24468)
Assay: COUP-TFII reporter suppression in human cells – cell-based, luciferase reporter, HEK293T, luminescence, primary screen (AID 686940);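 note: cells cotransfected with COUP-TFII expression vector driving the NGFI-A reporter; 0% = median of COUP-TF2 test wells and 100% = reporter-only cells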
Settings: HEK293T NGFI-A luciferase reporter, at 8.6 µM, stronger effect = higher value
Out of some 370,000 compounds screened, about 2,600 (0.7%) were called active. The list comes from a sample in which actives are over-represented; it also holds close analogues and randomly drawn compounds.
metric-name: inhibition (%)

molecule=COc1cc(/C=C/C(=O)N2CCc3ccccc3C2)cc(OC)c1OC target_or_test_system="COUP transcription factor 2 (Homo sapiens) (UniProt P24468)" reported_value=-52.5
molecule="COc1ccc(CN2C(=O)N3Cc4cc(OC)ccc4C3CS2(=O)=O)cc1 (stereo not given)" target_or_test_system="COUP transcription factor 2 (Homo sapiens) (UniProt P24468)" reported_value=-0.26
molecule=Cc1ccc(Cn2cc(CN3[C@@H](C)COc4cc(Br)ccc4S3(=O)=O)nn2)cc1 target_or_test_system="COUP transcription factor 2 (Homo sapiens) (UniProt P24468)" reported_value=7.53
molecule=C[C@@H]1CN([C@@H](C)CO)C(=O)c2cccc(NC(=O)Nc3cccc4ccccc34)c2O[C@H]1CN(C)S(=O)(=O)c1ccccc1F target_or_test_system="COUP transcription factor 2 (Homo sapiens) (UniProt P24468)" reported_value=11.9
molecule="COC(=O)c1cc(S(=O)(=O)N2CCN(C(=O)C3CCCO3)CC2)cn1C (stereo not given)" target_or_test_system="COUP transcription factor 2 (Homo sapiens) (UniProt P24468)" reported_value=-3.24
molecule="COC(=O)C1CN(CCc2ccccc2)CCS(=O)(=O)N1Cc1ccc(F)cc1 (stereo not given)" target_or_test_system="COUP transcription factor 2 (Homo sapiens) (UniProt P24468)" reported_value=3.48
molecule=COc1cc(/C=C/C(=O)n2cnc3ccccc32)cc(OC)c1OC target_or_test_system="COUP transcription factor 2 (Homo sapiens) (UniProt P24468)" reported_value=47.1
molecule=O=C1NC[C@H](CCCCN2C[C@H](Cc3ccc(O)cc3)N(CCc3ccccc3)C(=O)C2=O)N(CCc2ccccc2)C1=O target_or_test_system="COUP transcription factor 2 (Homo sapiens) (UniProt P24468)" reported_value=-1.56
molecule=O=C1NC[C@@H](Cc2ccc(O)cc2)N(CCc2cccc(F)c2)C1=O target_or_test_system="COUP transcription factor 2 (Homo sapiens) (UniProt P24468)" reported_value=48.2
molecule=O=C(CSc1nnc(COc2ccccc2)n1-c1ccc(Cl)cc1)Nc1ccc2c(c1)OCO2 target_or_test_system="COUP transcription factor 2 (Homo sapiens) (UniProt P24468)" reported_value=7.15
molecule=CC(=O)c1ccccc1OCc1ccc(C(=O)c2ccccc2)cc1 target_or_test_system="COUP transcription factor 2 (Homo sapiens) (UniProt P24468)" reported_value=23.1
molecule=C=CCN(C)CC#Cc1ccccc1 target_or_test_system="COUP transcription factor 2 (Homo sapiens) (UniProt P24468)" reported_value=17.2
molecule=O=C(O)c1ccc(NC(=O)c2ccc(COc3ccc(Cl)cc3)o2)cc1 target_or_test_system="COUP transcription factor 2 (Homo sapiens) (UniProt P24468)" reported_value=-7.9
molecule="Cc1nc(C(=O)Nc2ccc(Cl)cc2)sc1C1(C)CC(c2ccccc2)=NO1 (stereo not given)" target_or_test_system="COUP transcription factor 2 (Homo sapiens) (UniProt P24468)" reported_value=5.05
molecule=CCc1ccc(-c2nn(-c3ccccc3)cc2CSC(=N)N)cc1 target_or_test_system="COUP transcription factor 2 (Homo sapiens) (UniProt P24468)" reported_value=-5
molecule=Cc1ccc(OCC(=O)Nc2ccc(N3CCN(C(=O)c4ccco4)CC3)cc2)c(C)c1 target_or_test_system="COUP transcription factor 2 (Homo sapiens) (UniProt P24468)" reported_value=44.3
molecule="COc1cccc2c1C(=O)c1c(O)c3c(c(O)c1C2=O)CC(O)(C(C)=NNC(=O)c1ccc(Cl)c(Cl)c1)CC3OC1CC(N)C(O)C(C)O1 (stereo not given)" target_or_test_system="COUP transcription factor 2 (Homo sapiens) (UniProt P24468)" reported_value=52.1
molecule=CCOC(=O)C1CCN(C(=O)C(C)(C)NC(=O)Nc2ccccc2Cl)CC1 target_or_test_system="COUP transcription factor 2 (Homo sapiens) (UniProt P24468)" reported_value=25.7
molecule="Cc1ccc(NC(=O)C2CC(=O)N(c3ccc4c(c3)OCCO4)C2)cc1S(=O)(=O)N1CCCCCC1 (stereo not given)" target_or_test_system="COUP transcription factor 2 (Homo sapiens) (UniProt P24468)" reported_value=42.3
molecule=COC(=O)[C@@]12CCCCC3=C1N(CCC3)C(=O)[C@H]2CC(=O)NCc1cccc2ccccc12 target_or_test_system="COUP transcription factor 2 (Homo sapiens) (UniProt P24468)" reported_value=-8.73
molecule=C=CCN1[C@@H](Cc2ccccc2)COc2cccc(N3CCSCC3)c2S1(=O)=O target_or_test_system="COUP transcription factor 2 (Homo sapiens) (UniProt P24468)" reported_value=5.82
molecule=Cc1ccc(Cn2cc(COC(=O)N(C)Cc3ccccc3)nn2)cc1 target_or_test_system="COUP transcription factor 2 (Homo sapiens) (UniProt P24468)" reported_value=4.98
molecule="Cc1ccc(NC(=O)C(c2ccccc2)N2CCN(C(=O)c3ccco3)CC2)cc1 (stereo not given)" target_or_test_system="COUP transcription factor 2 (Homo sapiens) (UniProt P24468)" reported_value=3.53
molecule=CCOC(=O)[C@]12CCCCC/C=C\1N(Cc1ccc(OC)cc1)C(=O)[C@H]2CC(=O)NCCCN1CCCC1=O target_or_test_system="COUP transcription factor 2 (Homo sapiens) (UniProt P24468)" reported_value=1.89
molecule="COc1cc(C(O)c2nc3ccccc3n2C)cc(OC)c1OC (stereo not given)" target_or_test_system="COUP transcription factor 2 (Homo sapiens) (UniProt P24468)" reported_value=10.1
molecule=CCC[C@H]1C(=O)CC[C@@]23CCCN2C(=O)CCC[C@@H]13 target_or_test_system="COUP transcription factor 2 (Homo sapiens) (UniProt P24468)" reported_value=-13.2
molecule=Cc1c[nH]c2cccc(-c3ccc(Cl)cc3)c12 target_or_test_system="COUP transcription factor 2 (Homo sapiens) (UniProt P24468)" reported_value=1.03
molecule=COc1ccc(-n2c(SCC(=O)NC3CCCC3)nnc2-c2ccncc2)cc1 target_or_test_system="COUP transcription factor 2 (Homo sapiens) (UniProt P24468)" reported_value=4.6
molecule="CCN(CC)P(=O)(C(NC(=O)OC)C(F)(F)C(F)(F)C(F)(F)C(F)F)N(CC)CC (stereo not given)" target_or_test_system="COUP transcription factor 2 (Homo sapiens) (UniProt P24468)" reported_value=98.4
molecule="Cc1nc(C(=O)NCc2ccccc2)sc1C1(C)CC(c2cccnc2)=NO1 (stereo not given)" target_or_test_system="COUP transcription factor 2 (Homo sapiens) (UniProt P24468)" reported_value=37.6
molecule=CN1[C@H](Cc2ccccc2)COc2cccc(N3CCSCC3)c2S1(=O)=O target_or_test_system="COUP transcription factor 2 (Homo sapiens) (UniProt P24468)" reported_value=5.38
molecule=CCOc1ccc(Oc2c(Cl)cnn(-c3ccc(C)cc3)c2=O)cc1 target_or_test_system="COUP transcription factor 2 (Homo sapiens) (UniProt P24468)" reported_value=7.75
molecule=CCN1/C(=C\c2ccc3ccccc3[n+]2CC)Sc2cc(C)ccc21 target_or_test_system="COUP transcription factor 2 (Homo sapiens) (UniProt P24468)" reported_value=73
molecule=CC(=O)Nc1ccc(OC[C@@H](O)CN2CCC(C(O)(c3ccccc3)c3ccccc3)CC2)cc1 target_or_test_system="COUP transcription factor 2 (Homo sapiens) (UniProt P24468)" reported_value=-20.7
molecule=COc1cc(C(=O)NCC(=O)N2CC=C(c3ccccc3)CC2)cc(OC)c1OC target_or_test_system="COUP transcription factor 2 (Homo sapiens) (UniProt P24468)" reported_value=9.83
molecule=N=C(N)SCc1cccc2ccccc12 target_or_test_system="COUP transcription factor 2 (Homo sapiens) (UniProt P24468)" reported_value=38.5
molecule=COC(=O)C[C@@H]1CC[C@H]2[C@@H](COc3ccc(NS(=O)(=O)CC(F)(F)F)cc3C(=O)N2C)O1 target_or_test_system="COUP transcription factor 2 (Homo sapiens) (UniProt P24468)" reported_value=-17.9
molecule=Cc1ccc(-n2c(SCC(=O)Nc3cccc4ccccc34)nnc2-c2ccco2)cc1 target_or_test_system="COUP transcription factor 2 (Homo sapiens) (UniProt P24468)" reported_value=6.67
molecule="O=C(NCc1ccco1)C1CCCN(S(=O)(=O)c2ccc(Cl)s2)C1 (stereo not given)" target_or_test_system="COUP transcription factor 2 (Homo sapiens) (UniProt P24468)" reported_value=-2.82
molecule="Cc1nc(-c2ccc(Cl)cc2)sc1C1(C)CC(c2ccccc2F)=NO1 (stereo not given)" target_or_test_system="COUP transcription factor 2 (Homo sapiens) (UniProt P24468)" reported_value=-23.8
